assay: Inhibition of trypsin
Endpoint: IC50 (nM)

{"Compound": "CC(C)CC(NC(=O)[C@H](O)COS(=O)(=O)O)C(=O)N[C@@H]1C(=O)N[C@@H](CCCNC(=N)N)C(=O)N[C@H]2CC[C@@H](O)N(C2=O)[C@@H](CC(C)C)C(=O)N(C)[C@@H](Cc2ccc(O)cc2)C(=O)N[C@@H](C(C)C)C(=O)O[C@@H]1C (single isomer, unassigned)", "IC50, nM": 1}

[a] CCCCCC(=O)N[C@@H](CC(=O)O)C(=O)N[C@@H]1C(=O)N[C@@H](CCCNC(=N)N)C(=O)N[C@H]2CC[C@@H](O)N(C2=O)[C@@H]([C@@H](C)CC)C(=O)N(C)[C@@H](CC(=O)c2ccccc2N)C(=O)N[C@@H](C(C)C)C(=O)O[C@@H]1C [MICROPEPTIN SD999]
[b] CCCCCCCC(=O)N[C@@H](CCC(=O)O)C(=O)N[C@@H]1C(=O)N[C@@H](CCCCN)C(=O)N[C@H]2CC[C@@H](O)N(C2=O)[C@@H](CC(C)C)C(=O)N(C)[C@@H](Cc2ccc(O)cc2)C(=O)N[C@@H](C(C)C)C(=O)O[C@@H]1C [MICROPEPTIN A]
Pick the one with the larger IC50: a vs b Lab note: record the label of whichever item you select.
a

* * *

experiment: Inhibition of trypsin
Endpoint: IC50 (nM)
Write it as a number; the unit nM goes unstated.

Give recorded IC50. CC(C)[C@@H]1NC(=O)[C@H](Cc2ccc(O)cc2)N(C)C(=O)[C@H](Cc2ccccc2)N2C(=O)[C@H](CC[C@H]2O)NC(=O)[C@H](CCCNC(=N)N)NC(=O)[C@@H](NC(=O)[C@@H](O)COS(=O)(=O)O)[C@@H](C)OC1=O [MICROPEPTIN 90]
20
